Target or test system: T1, human ferroportin (SLC40A1) fused in frame with GFP, stably expressed in HEK293 cells (human, UniProt Q9NP59 1-571)
T1 sequence (looked up): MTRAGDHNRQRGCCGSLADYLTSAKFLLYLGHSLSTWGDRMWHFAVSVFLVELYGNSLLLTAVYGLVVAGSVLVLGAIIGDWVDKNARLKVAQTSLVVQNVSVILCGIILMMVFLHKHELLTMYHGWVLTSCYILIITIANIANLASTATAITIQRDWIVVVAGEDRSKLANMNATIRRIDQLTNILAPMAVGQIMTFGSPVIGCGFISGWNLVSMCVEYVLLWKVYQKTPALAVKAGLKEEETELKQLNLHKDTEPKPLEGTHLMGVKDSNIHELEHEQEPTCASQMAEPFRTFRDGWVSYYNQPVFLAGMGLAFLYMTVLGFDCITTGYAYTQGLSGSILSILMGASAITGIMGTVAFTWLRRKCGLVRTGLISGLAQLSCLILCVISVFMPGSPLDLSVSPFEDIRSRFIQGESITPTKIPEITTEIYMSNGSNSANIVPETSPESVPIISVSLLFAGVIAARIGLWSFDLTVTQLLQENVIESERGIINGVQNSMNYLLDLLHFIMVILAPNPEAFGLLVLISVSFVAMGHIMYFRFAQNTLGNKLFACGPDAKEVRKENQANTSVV
Test method notes: cell-based or functional assay
Bridge positions count the residues as written; N and C are the ends. Primed or numbered codes have the meaning given here. * marks the point of attachment. PEG8(3) = PEG8 side chain conjugate on Lys; Isovaleryl = CC(C)CC(=O)*
Quick list: In Vitro Activity EC50 per entry.
I only need the number, in nM, no unit after it.

Below, 5 binders whose answers are already recorded.
INSERT INTO measurements (binder, measured_result) VALUES
  ('Isovaleryl-DTHFPCIKFGPRSKGWVCK(PEG8(3))-NH2 (not fully specified (bridges); cysteine pairing not given here) [Compound 153]', 18),
  ('Isovaleryl-DTHFPCIKFGPRSKGWVCK-NH2 (not fully specified (bridges); cysteine pairing not given here) [Compound 9]', 32),
  ('Isovaleryl-DTHFPCIIFGPRSKGCK-NH2 (not fully specified (bridges); cysteine pairing not given here) [Compound 115]', 21),
  ('Isovaleryl-DTHFPCIKFEPRSKGWVCK-NH2 (not fully specified (bridges); cysteine pairing not given here) [Compound 181]', 15),
  ('Isovaleryl-DTHFPICIFGPRSK(PEG8(3))GWVC-NH2 (not fully specified (bridges); cysteine pairing not given here) [Compound 176]', 6);

Proceeding to the next binder to report its In Vitro Activity EC50.
Query block: Looking for the measured In Vitro Activity EC50 of Isovaleryl-DTHFPICIFGPRSKGWVC-NH2 (disulfide 7-18 (inferred)) [Compound 2] , can you help?
Result block: 5

The measurements presented in this section are drawn from patent US20250340608A1.
